Tested on: MvaT
protocol-details: PBM 8-mer E-score (mean of HK and ME arrays) (E-score (dimensionless, -0.5 to 0.5)); higher = stronger relative binding preference
In all, about 33,000 sequences were measured (“E-score (dimensionless, -0.5 to 0.5)”: median about -0.058, highest 2% from about 0.35 on). The sample holds the highest values, similar sequences and a random draw of the others, so the mix is not that of the screen.
Where PBM 8-mer E-score equals or exceeds 0.08, the correct label is 1 (yes); where it does not, the label is 0 (no).

# record-sequence, experimental-target, label-class
rows = [
    ("TACGATCA", "MvaT", "0 (no)"),
    ("GCCGAACC", "MvaT", "0 (no)"),
    ("GCACCGCC", "MvaT", "0 (no)"),
    ("AGCGTCAT", "MvaT", "0 (no)"),
    ("GCAATATA", "MvaT", "1 (yes)"),
    ("AACTGGTC", "MvaT", "0 (no)"),
    ("AGGGGGTG", "MvaT", "0 (no)"),
    ("GCAATAAA", "MvaT", "1 (yes)"),
    ("AATAAACT", "MvaT", "1 (yes)"),
    ("CTAAGTAG", "MvaT", "0 (no)"),
    ("AATAAGTA", "MvaT", "1 (yes)"),
    ("ACAATATA", "MvaT", "1 (yes)"),
    ("GAACGTTA", "MvaT", "1 (yes)"),
    ("CCAATATA", "MvaT", "1 (yes)"),
    ("CCAATACA", "MvaT", "1 (yes)"),
    ("AAGTATTA", "MvaT", "1 (yes)"),
    ("AACTACCA", "MvaT", "1 (yes)"),
    ("ACGTATTA", "MvaT", "1 (yes)"),
    ("CAGTATTA", "MvaT", "1 (yes)"),
    ("AATAAATC", "MvaT", "1 (yes)"),
    ("GAAGCAAC", "MvaT", "0 (no)"),
]

###

Test system: MvaT
protocol-details: PBM 8-mer E-score (mean of HK and ME arrays) (E-score (dimensionless, -0.5 to 0.5)); higher = stronger relative binding preference
The full ranking holds about 33,000 sequences; the median of “E-score (dimensionless, -0.5 to 0.5)” is about -0.058, and the highest 2% start at about 0.35. Many of the other results were omitted from the sample, so the highest values are more common in it than they were.
Where PBM 8-mer E-score equals or exceeds 0.3, the correct label is Criterion met; where it does not, the label is Criterion not met.

# record-sequence, experimental-target, label-class
measured = [
    ("ACTATTAA", "MvaT", "Criterion met"),
    ("GATAACTA", "MvaT", "Criterion not met"),
    ("ATGTGGGA", "MvaT", "Criterion not met"),
    ("GAGATCGC", "MvaT", "Criterion not met"),
    ("ACGGATAT", "MvaT", "Criterion not met"),
    ("ATAATGGG", "MvaT", "Criterion not met"),
    ("ATTAACTA", "MvaT", "Criterion met"),
    ("CTTATTGA", "MvaT", "Criterion not met"),
    ("GTTTTTTA", "MvaT", "Criterion not met"),
    ("CTGCAGTA", "MvaT", "Criterion not met"),
    ("ACGGAAGG", "MvaT", "Criterion not met"),
    ("CTTGTCGC", "MvaT", "Criterion not met"),
    ("GTTTACTA", "MvaT", "Criterion not met"),
    ("CTTTTTAA", "MvaT", "Criterion not met"),
    ("CATTACGA", "MvaT", "Criterion not met"),
    ("CAACGGCG", "MvaT", "Criterion not met"),
    ("ACTTAGAG", "MvaT", "Criterion not met"),
    ("TGCAGGCA", "MvaT", "Criterion not met"),
    ("AGGCCATG", "MvaT", "Criterion not met"),
    ("ATTTATTG", "MvaT", "Criterion met"),
    ("CGTTTTGC", "MvaT", "Criterion not met"),
    ("CCGAATAG", "MvaT", "Criterion not met"),
    ("ATTATTGA", "MvaT", "Criterion met"),
    ("ATTTATCG", "MvaT", "Criterion not met"),
    ("ATTTAAAA", "MvaT", "Criterion met"),
    ("CAGGGTTC", "MvaT", "Criterion not met"),
    ("CTTTTAAA", "MvaT", "Criterion met"),
    ("CTGATAAC", "MvaT", "Criterion not met"),
    ("ACTAGTAT", "MvaT", "Criterion met"),
    ("AGTATTAG", "MvaT", "Criterion not met"),
    ("ATTTATTA", "MvaT", "Criterion met"),
    ("ACAAACCA", "MvaT", "Criterion not met"),
    ("ACTAACTA", "MvaT", "Criterion met"),
    ("GTTAACTA", "MvaT", "Criterion met"),
    ("TCTATTAA", "MvaT", "Criterion not met"),
    ("CATAACTA", "MvaT", "Criterion not met"),
    ("ATTTATGG", "MvaT", "Criterion not met"),
    ("GTTATTGA", "MvaT", "Criterion met"),
    ("CTTTATTC", "MvaT", "Criterion not met"),
    ("CTTTTAAC", "MvaT", "Criterion met"),
    ("CCTATTAA", "MvaT", "Criterion not met"),
    ("AGTCATTA", "MvaT", "Criterion not met"),
    ("CATGATGC", "MvaT", "Criterion not met"),
]

###

System: MvaT
protocol-details: PBM 8-mer E-score (mean of HK and ME arrays) (E-score (dimensionless, -0.5 to 0.5)); higher = stronger relative binding preference
In all, about 33,000 sequences were measured (“E-score (dimensionless, -0.5 to 0.5)”: median about -0.058, highest 2% from about 0.35 on). The sample holds the highest values, similar sequences and a random draw of the others, so the mix is not that of the screen.
experimental-endpoint: PBM 8-mer E-score

# record-sequence, observed-measurement
rows = [
    ("AACAATTC", 0.27),
    ("CATATAGC", 0.0736),
    ("CATAATTA", 0.421),
    ("TACTGTAA", 0.336),
    ("ACATAAAG", 0.101),
    ("ACATAAAT", 0.301),
    ("GTGTTACA", 0.244),
    ("CATAGGGA", -0.132),
    ("AACAATTG", 0.217),
    ("AACAATAC", 0.254),
    ("AATCGAAC", 0.176),
    ("AATAATTA", 0.463),
    ("CGCGTGAA", 0.0803),
    ("ACGACCTC", -0.143),
    ("TATAAACA", 0.373),
    ("ATGCGTCC", -0.205),
    ("AATTCACA", 0.206),
    ("CTTGGACA", -0.17),
    ("CGGCTTGA", -0.132),
    ("AAATAAGC", 0.275),
    ("GAATAGTA", 0.229),
    ("GGCGGAAC", -0.146),
    ("AACAATCT", 0.0729),
    ("TCTCATAA", 0.0817),
    ("AAATAAAG", 0.405),
    ("AGATAAAA", 0.178),
    ("TAATAGTA", 0.362),
    ("TACAATAA", 0.328),
    ("CATAATCA", 0.227),
    ("AGTTCGAT", 0.171),
    ("AATATAAT", 0.449),
    ("CTGGAACA", 0.00992),
    ("CAGCTTAG", -0.203),
    ("CAATAGTA", 0.264),
    ("AAATAAAT", 0.428),
    ("AATATAAA", 0.451),
    ("AGTAATTG", 0.293),
    ("GAGAATTA", 0.23),
    ("GATAAACA", 0.278),
    ("GCTATAAA", 0.217),
    ("CAATAAAG", 0.252),
    ("CCGGCGCA", -0.0431),
    ("CATAAACA", 0.221),
    ("AACAATTA", 0.391),
    ("AATAATTG", 0.372),
    ("CCTCAACC", -0.226),
]
